# system.name: P-gp (Homo sapiens)
# Sequence (P08183 whole entry): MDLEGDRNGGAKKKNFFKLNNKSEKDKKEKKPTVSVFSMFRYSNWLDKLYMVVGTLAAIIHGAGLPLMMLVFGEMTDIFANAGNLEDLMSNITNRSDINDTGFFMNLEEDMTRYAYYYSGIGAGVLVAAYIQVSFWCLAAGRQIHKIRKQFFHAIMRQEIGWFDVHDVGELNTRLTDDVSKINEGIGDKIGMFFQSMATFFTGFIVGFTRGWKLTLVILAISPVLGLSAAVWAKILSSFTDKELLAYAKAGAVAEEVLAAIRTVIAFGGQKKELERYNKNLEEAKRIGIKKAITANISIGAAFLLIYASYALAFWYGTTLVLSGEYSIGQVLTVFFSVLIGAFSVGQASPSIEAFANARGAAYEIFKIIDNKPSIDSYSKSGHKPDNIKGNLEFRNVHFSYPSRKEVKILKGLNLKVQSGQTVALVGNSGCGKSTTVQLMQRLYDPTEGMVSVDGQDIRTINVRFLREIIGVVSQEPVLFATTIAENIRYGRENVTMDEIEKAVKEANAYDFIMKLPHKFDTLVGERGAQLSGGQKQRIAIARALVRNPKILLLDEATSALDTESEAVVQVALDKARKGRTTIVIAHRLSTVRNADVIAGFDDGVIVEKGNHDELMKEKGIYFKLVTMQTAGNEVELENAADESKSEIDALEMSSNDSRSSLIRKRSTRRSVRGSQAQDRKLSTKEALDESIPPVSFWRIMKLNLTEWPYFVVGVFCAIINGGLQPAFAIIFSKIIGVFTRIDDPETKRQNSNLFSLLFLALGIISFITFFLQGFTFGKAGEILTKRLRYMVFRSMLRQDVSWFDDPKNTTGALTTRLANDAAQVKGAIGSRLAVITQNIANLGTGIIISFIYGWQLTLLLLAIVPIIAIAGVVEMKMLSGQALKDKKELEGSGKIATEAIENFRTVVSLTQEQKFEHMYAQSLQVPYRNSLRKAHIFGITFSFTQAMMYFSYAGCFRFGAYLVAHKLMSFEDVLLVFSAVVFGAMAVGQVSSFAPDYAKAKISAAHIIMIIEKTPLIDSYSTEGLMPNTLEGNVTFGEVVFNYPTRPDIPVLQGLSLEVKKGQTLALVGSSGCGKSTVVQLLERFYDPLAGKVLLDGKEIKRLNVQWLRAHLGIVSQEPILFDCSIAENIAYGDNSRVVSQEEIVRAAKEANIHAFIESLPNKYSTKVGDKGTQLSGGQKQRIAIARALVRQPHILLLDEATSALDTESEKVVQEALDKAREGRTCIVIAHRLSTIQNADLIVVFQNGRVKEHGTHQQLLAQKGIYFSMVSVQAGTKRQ
# assay.protocol: in vitro
# condition.notes: MDCK-MDR1, pH 7.4
measurement.kind: Papp (×10⁻⁶ cm/s)

{"compound": "Cc1cccc(C)c1OCC(=O)N[C@@H](Cc1ccccc1)[C@@H](O)C[C@H](Cc1ccccc1)NC(=O)[C@H](C(C)C)N1CCCNC1=O [LPV, lopinavir]", "measured.result": 12.5}

###

# system.name: P-gp (Homo sapiens)
# assay.protocol: in vitro
# condition.notes: MDCK-MDR1, pH 7.4

{"compound": "C=C[C@H]1C[N@@]2CC[C@H]1C[C@@H]2[C@@H](O)c1ccnc2ccc(OC)cc12 [QND, Quinidine]", "efflux ratio at 3 µM": 11.1}
